System: Salmonella typhimurium
Experiment: Antimicrobial activity against Salmonella enterica serovar Typhimurium S21 gyrA+
Assay type: functional, Salmonella enterica subsp. enterica serovar Typhimurium
result type: MIC

Query: Find the measured MIC of CC(=O)OCC1=C(C(=O)O)N2C(=O)[C@@H](NC(=O)Cc3cccs3)[C@H]2SC1 [CEPHALOTHIN] and report it.
Reply: < 2 µg/mL

Query: Give the reported value of MIC for this record: CN(C)[C@@H]1C(O)=C(C(N)=O)C(=O)[C@@]2(O)C(O)=C3C(=O)c4c(O)cccc4[C@@](C)(O)[C@H]3C[C@@H]12 [TETRACYCLINE]
Reply: < 4 µg/mL

Query: Give MIC for the following compound: NC[C@H]1O[C@H](O[C@H]2[C@H](O)[C@@H](O[C@H]3O[C@H](CO)[C@@H](O)[C@H](N)[C@H]3O)[C@H](N)C[C@@H]2N)[C@H](O)[C@@H](O)[C@@H]1O [KANAMYCIN]
Reply: < 8 µg/mL
